Tested on: HCT-116 colon carcinoma
Assay: Inhibition of in vitro cell proliferation (HCT116);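 further: cells exposed to compound for 24 h, then 14C-thymidine added for a further 24 h and its uptake into DNA counted by scintillation, DMSO-only wells as control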
Type: cell-based, human
Details: Homo sapiens, HCT-116, 14C-thymidine incorporation
The label 1.0 is reserved for IC50 strictly under 4 µM; 0.0 covers values equal to or above it.

>>> df
                                test_smiles  discrete_label
0  Cc1cc2c(F)c(Oc3ncnc(N)c3C=NOCCCN3CCN(S(C)(=O)=O)CC3)ccc2[nH]1             0.0
1              CON=Cc1c(N)ncnc1Oc1ccc(O)cc1             1.0
2  CCNC(=O)Nc1ccc(Oc2ncnc(N)c2C=NOC)c(Cl)c1             0.0
3  CNCCON=Cc1c(N)ncnc1Oc1ccc2[nH]c(C)cc2c1F             1.0
4     CNC(=O)Nc1ccc(Oc2ncnc(N)c2C=NOC)cc1Cl             0.0
5  CON=Cc1c(N)ncnc1Oc1ccc(NC(=O)Nc2ccccc2Cl)c(Cl)c1             0.0
6  CON=Cc1c(N)ncnc1Oc1ccc(NC(=O)NC(C)C)c(Cl)c1             0.0
7  C#CCNC(=O)Nc1ccc(Oc2ncnc(N)c2C=NOC)cc1Cl             1.0

Pending compound:
Report whether reported IC50 is lower than 4 µM (strictly) for `CNC(=O)Nc1ccc(Oc2ncnc(N)c2C=NOC)cc1F`
0.0

###

Biological target: rat VEGF-R2 kinase domain (Rattus norvegicus)
Construct: amino acids 786-1343 of the rat VEGF-R2 kinase domain; polyhistidine (N)
Experiment: VEGF-R2 Screening Assay
Type: biochemical
Conditions: > means no observed 50% inhibition at the indicated test concentration; ~ means approximately 50% inhibition at that concentration; read-out: IC50 VEGF-R2
Listed here: items and their measured IC50.
Provide only the numeric value, understood in nM.

Record excerpt, results attached:
>>> df
                                test_smiles  endpoint_unit  assay_value
0  CON=Cc1c(N)ncnc1Oc1ccc(NC(=O)Nc2ccc(F)cc2F)c(Cl)c1             nM            3
1  CCCNC(=O)n1c(C)cc2cc(Oc3ncnc(N)c3C=NOC)ccc21             nM          7.6
2  CON=Cc1c(N)ncnc1Oc1ccc(NC(=O)Nc2nc(C)cs2)c(Cl)c1             nM          3.9

Attention now shifts to the item below.
Look at this compound and give its reported IC50. `CON=Cc1c(N)ncnc1Oc1ccc(CC(=O)Nc2ccccc2)cc1`
40.7

###

Here the recorded IC50 is given for each entry.
Biological target: HER2 cytoplasmic domain (Homo sapiens, UniProt P04626)
Sequence (P04626 676-1255 limits assumed): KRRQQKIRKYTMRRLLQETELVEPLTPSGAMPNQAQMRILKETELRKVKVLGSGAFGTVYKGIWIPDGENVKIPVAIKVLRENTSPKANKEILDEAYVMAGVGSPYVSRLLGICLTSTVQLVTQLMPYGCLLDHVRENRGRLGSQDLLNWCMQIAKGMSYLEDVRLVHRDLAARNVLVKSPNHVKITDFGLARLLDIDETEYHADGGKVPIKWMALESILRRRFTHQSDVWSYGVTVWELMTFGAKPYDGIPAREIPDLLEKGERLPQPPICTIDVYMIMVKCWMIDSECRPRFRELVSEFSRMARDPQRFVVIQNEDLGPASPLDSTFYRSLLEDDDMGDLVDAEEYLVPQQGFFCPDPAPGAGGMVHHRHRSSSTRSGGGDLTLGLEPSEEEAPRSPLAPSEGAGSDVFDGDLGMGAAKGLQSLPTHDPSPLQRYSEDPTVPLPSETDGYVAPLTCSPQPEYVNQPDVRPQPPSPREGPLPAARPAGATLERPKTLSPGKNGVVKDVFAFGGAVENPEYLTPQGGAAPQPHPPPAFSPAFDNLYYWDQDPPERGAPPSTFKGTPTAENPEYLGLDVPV

                                test_smiles  assay_endpoint  assay_value
0  CCCCNC(=O)Nc1ccc(Oc2ncnc(N)c2C=NOC)cc1Cl            IC50     > 100 µM

What value of IC50 has been recorded for this entry: `COCCCON=Cc1c(N)ncnc1Oc1ccc2[nH]c(C)cc2c1F`
3.99 µM

Same read-out for `CON=Cc1c(N)ncnc1Oc1ccc(OCc2ccccc2)cc1` ?
0.555 µM

Another: `CON=Cc1c(N)ncnc1Oc1ccc(NC(=O)Nc2ccc(F)cc2F)c(Cl)c1`
> 100 µM

Another molecule: `CON=Cc1c(N)ncnc1Oc1ccc2[nH]cc(C)c2c1`
0.208 µM

Try this molecule next: `CON=Cc1c(N)ncnc1Oc1ccc(NC(=O)NCCO)c(Cl)c1`
> 100 µM

Another molecule to check: `CON=Cc1c(N)ncnc1Oc1ccc(NC(=O)Nc2cccc(F)c2)c(Cl)c1`
> 10 µM

Param item: `CON=Cc1c(N)ncnc1Oc1ccc(NC(=O)Nc2ccccn2)c(Cl)c1`
> 100 µM

###

# reported pIC50; entries follow
Target: rat VEGF-R2 kinase domain (Rattus norvegicus, UniProt O08775)
Construct: amino acids 786-1343 of the rat VEGF-R2 kinase domain; polyhistidine (N)
Sequence (O08775 786-1343): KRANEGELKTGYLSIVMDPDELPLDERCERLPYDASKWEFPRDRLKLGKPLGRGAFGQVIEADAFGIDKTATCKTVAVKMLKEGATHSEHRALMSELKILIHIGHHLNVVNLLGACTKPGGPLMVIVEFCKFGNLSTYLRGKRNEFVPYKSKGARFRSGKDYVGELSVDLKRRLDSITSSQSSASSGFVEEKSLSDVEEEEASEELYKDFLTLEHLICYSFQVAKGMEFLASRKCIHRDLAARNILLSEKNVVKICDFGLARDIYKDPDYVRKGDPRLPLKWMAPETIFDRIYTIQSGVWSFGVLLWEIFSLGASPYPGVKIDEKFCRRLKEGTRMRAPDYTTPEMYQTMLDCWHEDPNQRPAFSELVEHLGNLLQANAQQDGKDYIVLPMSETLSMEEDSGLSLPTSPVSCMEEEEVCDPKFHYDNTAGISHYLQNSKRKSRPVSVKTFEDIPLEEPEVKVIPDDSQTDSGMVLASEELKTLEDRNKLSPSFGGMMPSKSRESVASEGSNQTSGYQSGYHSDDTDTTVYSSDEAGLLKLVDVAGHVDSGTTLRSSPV
Assay: VEGF-R2 Screening Assay
Format: biochemical
Conditions: > means no observed 50% inhibition at the indicated test concentration; ~ means approximately 50% inhibition at that concentration; read-out: IC50 VEGF-R2
Keep it numeric: pIC50 is minus log10 of the concentration in mol/L.

See these solved cases before continuing.
>>> df
                                   molecule  assay_endpoint  assay_value
0  CON=Cc1c(N)ncnc1Oc1ccc2c(c1)cc(C)n2C(=O)NCCN(C)C           pIC50         7.37
1  Cc1cc2c(F)c(Oc3ncnc(N)c3C=NOCCCN3CCCCC3)ccc2[nH]1           pIC50         7.43
2   CON=Cc1c(N)ncnc1Oc1ccc(NC(=O)OC)c(Cl)c1           pIC50         6.82
3  CON=Cc1c(N)ncnc1Oc1ccc(NC(=O)Nc2cccc(Cl)c2)c(Cl)c1           pIC50         8.52
4          CON=Cc1c(N)ncnc1Oc1ccc2c(c1)OCO2           pIC50         5.40

Name the reported pIC50 value associated with the molecule `CON=Cc1c(N)ncnc1Oc1ccc(NC(=O)NCCN(C)C)c(Cl)c1`
6.55

Follow-up item: `C#CCNC(=O)Nc1ccc(Oc2ncnc(N)c2C=NOC)cc1Cl`
7.56

Consider next the molecule `CON=Cc1c(N)ncnc1Oc1ccc(NC(=O)Nc2ccccc2Cl)c(Cl)c1` in the same way.
8.59

Check `Cc1cc2c(F)c(Oc3ncnc(N)c3C=NOCC3CC3)ccc2[nH]1` too.
7.34

How about `CON=Cc1c(N)ncnc1Oc1ccc(NC(=O)Nc2ccccn2)c(Cl)c1` ?
7.47

Now consider `Cc1cc2c(F)c(Oc3ncnc(N)c3C=NOCCCCN3CCCCC3)ccc2[nH]1` and answer again.
7.07

How about this molecule: `C=CCNC(=O)Nc1ccc(Oc2ncnc(N)c2C=NOC)cc1Cl`
7.72

Similarly, `CNC(=O)Nc1ccc(Oc2ncnc(N)c2C=NOC)cc1F` ?
6.85

How about `CC(=O)N1CCN(CCCON=Cc2c(N)ncnc2Oc2ccc3[nH]c(C)cc3c2F)CC1` ?
7.09

###

Molecular target: murine Aurora-A (Mus musculus)
Construct: replaced with the full length protein encoding the murine Aurora-A; made in house; host or cells: sf9 insect cells
Experiment: Aurora-A Screening Assay
Assay type: biochemical
pIC50: −log10 of the molar value.
Overview of reported pIC50 across a group of compounds:

Please review the following examples before continuing.
>>> df
                                   compound              measurement_target  assay_endpoint  assay_value
0  CNC(=O)Nc1ccc(Oc2ncnc(N)c2C=NOC)cc1Cl [Cpd 51]  murine Aurora-A (Mus musculus)           pIC50       < 4.00
1  Cc1cc2c(F)c(Oc3ncnc(N)c3C=NOCCCCN3CCCCC3)ccc2[nH]1 [Cpd 24]  murine Aurora-A (Mus musculus)           pIC50       < 4.00
2  CCNC(=O)Cc1ccc(Oc2ncnc(N)c2C=NOC)cc1 [Cpd 101]  murine Aurora-A (Mus musculus)           pIC50       < 5.00
3  Cc1cc2c(F)c(Oc3ncnc(N)c3C=NOCCCN(C)C)ccc2[nH]1 [Cpd 17]  murine Aurora-A (Mus musculus)           pIC50         4.47
4  CON=Cc1c(N)ncnc1Oc1ccc2c(c1)cc(C)n2C(=O)NCCO [Cpd 39]  murine Aurora-A (Mus musculus)           pIC50       < 4.00
5  CCNC(=O)Oc1ccc(Oc2ncnc(N)c2C=NOC)cc1 [Cpd 102]  murine Aurora-A (Mus musculus)           pIC50       < 5.00

State its pIC50 on murine Aurora-A (Mus musculus): CON=Cc1c(N)ncnc1Oc1ccc2c(ccn2C)c1 [Cpd 11]
< 4.00

And CON=Cc1c(N)ncnc1Oc1ccc(NC(=O)NCc2ccc(F)cc2F)c(Cl)c1 [Cpd 78] ?
< 4.00

Would you mind doing CNC(=O)c1ccc(Oc2ncnc(N)c2C=NOC)cc1 [Cpd 98] as well?
< 4.00

Would you mind doing Cc1cc2c(F)c(Oc3ncnc(N)c3/C=N/O)ccc2[nH]1 [Cpd 27] as well?
~5.00

Try this compound too: CON=Cc1c(NOC)ncnc1Oc1ccc2[nH]ccc2c1 [Cpd 4]
< 4.00

###

Target: murine Aurora-A (Mus musculus, UniProt P97477)
Construct: replaced with the full length protein encoding the murine Aurora-A; made in house; host or cells: sf9 insect cells
Sequence (P97477 whole entry): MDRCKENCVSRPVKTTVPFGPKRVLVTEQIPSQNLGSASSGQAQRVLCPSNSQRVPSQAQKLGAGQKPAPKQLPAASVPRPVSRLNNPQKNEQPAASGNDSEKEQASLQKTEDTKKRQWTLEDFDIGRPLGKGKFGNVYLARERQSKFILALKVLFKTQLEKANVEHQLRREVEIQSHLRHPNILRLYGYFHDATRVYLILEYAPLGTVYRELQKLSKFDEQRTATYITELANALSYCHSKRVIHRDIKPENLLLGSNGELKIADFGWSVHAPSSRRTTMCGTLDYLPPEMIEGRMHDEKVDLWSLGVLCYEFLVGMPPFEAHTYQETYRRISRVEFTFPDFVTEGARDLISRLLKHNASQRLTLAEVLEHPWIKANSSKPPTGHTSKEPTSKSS
Test: Aurora-A Screening Assay
Assay type: biochemical
Form field: IC50 (one value per entry).

>>> print(df.to_string())
                                test_smiles  assay_value
0  Cc1cc2c(F)c(Oc3ncnc(N)c3C=NOCCCN3CCOCC3)ccc2[nH]1     > 100 µM

Which IC50 reading was recorded for the compound `CON=Cc1c(N)ncnc1Oc1ccc(NC(=O)Nc2ccccc2F)c(Cl)c1` ?
> 100 µM

Same question for `CON=Cc1c(N)ncnc1Oc1ccc(NC(=O)Nc2ncc(C)s2)c(Cl)c1` please.
> 10 µM

Same for `CON=Cc1c(N)ncnc1Oc1ccc(O)cc1`
17.8 µM

And for `CON=Cc1c(N)ncnc1Oc1ccc(NC(=O)NCCCO)c(Cl)c1` ?
> 100 µM

Try `Cc1cc2c(F)c(Oc3ncnc(N)c3C=NOCCCCN3CCOCC3)ccc2[nH]1` next.
> 100 µM

Next: `C=CCNC(=O)Nc1ccc(Oc2ncnc(N)c2C=NOC)cc1Cl`
> 100 µM

Here is the next compound: `Cc1cc2c(F)c(Oc3ncnc(N)c3C=NOCCCN3CCCC3)ccc2[nH]1`
> 10 µM

Query `CON=Cc1c(N)ncnc1Oc1ccc(NC(=O)Nc2ccccc2)c(Cl)c1` next
> 100 µM

Moving on to the next compound: `Cc1cc2c(F)c(Oc3ncnc(N)c3C=NOCCN(C)C)ccc2[nH]1`
> 100 µM
